Recorded values, source ChEMBL document CHEMBL1126955.

# Method: Rate of enzyme inactivation for the compound was determined
Parameter measured: kinact (s⁻¹)
Write the number in s⁻¹ without appending the unit.

kinact lookup needed for CC1Cc2c(OCc3ccc(-c4ccccc4)cn3)ccc3c2c(c(CC(C)(C)Cc2nnn[nH]2)n3Cc2ccc(Cl)cc2)S1 (stereo unspecified) , thanks.
0.009

* * *

# Tested system: UniProt P12527
# Method: In vitro test for inhibition of 5-lipoxygenase in cell-free preparations from rat PMN leukocytes
Parameter measured: IC50 (nM)
Write the number in nM without appending the unit.

Previously resolved entries follow.
| Compound | Parameter measured | Reported measurement |
| --- | --- | --- |
| CC1Cc2c(OCc3ccc(-c4ccccc4)cn3)ccc3c2c(c(CC(C)(C)CCC(=O)O)n3Cc2ccc(Cl)cc2)S1 (centres undefined) | IC50 | 130 |
| CSc1c(CC(C)(C)C(=O)O)n(Cc2ccc(Cl)cc2)c2ccc(OCc3ccc(-c4ccccc4)cn3)cc12 | IC50 | 600 |
| CC1Cc2c(OCc3cccc(-c4ccccc4)n3)ccc3c2c(c(CC(C)(C)C(=O)O)n3Cc2ccc(Cl)cc2)S1 (centres undefined) | IC50 | 2500 |

Please examine the following record next.
IC50 lookup needed for CC1Cc2c(OCc3cccs3)ccc3c2c(c(CC(C)(C)C(=O)O)n3Cc2ccc(Cl)cc2)S1 (centres undefined) , thanks.
2000

* * *

// Cmax lookup, one value per entry
# Method: Peak concentration in rat plasma was determined
# Type: ADME, organism-based
Write the number in µM without appending the unit.

Previously resolved entries follow.
| Compound | Cmax, µM |
| --- | --- |
| CC1Cc2c(CCc3ccc(-c4ccccc4)cn3)ccc3c2c(c(CC(C)(C)Cc2nnn[nH]2)n3Cc2ccc(Cl)cc2)S1 (centres undefined) | 8 |
| CC1Cc2c(OCc3ccc(-c4ccccc4)cn3)ccc3c2c(c(CC(C)(C)Cc2nnn[nH]2)n3Cc2ccc(Cl)cc2)S1 (centres undefined) | 10 |
| CC1Cc2c(OCc3ccc(-c4ccccc4)cn3)ccc3c2c(c(CC(C)(C)CC(=O)NS(C)(=O)=O)n3Cc2ccc(Cl)cc2)S1 (centres undefined) | 12 |

Please examine the following record next.
Cmax lookup needed for CC1Cc2c(OCc3ccc(-c4ccccc4)cn3)ccc3c2c(c(CC(C)(C)CC(=O)O)n3Cc2ccc(Cl)cc2)S1 (centres undefined) , thanks.
4

* * *

// Tmax lookup, one value per entry
# Method: Maximum time taken for compound to reach peak concentration in rat plasma
# Assay type: ADME, organism-based
Write the number in h without appending the unit.

Previously resolved entries follow.
| Compound | Tmax, h |
| --- | --- |
| CC1Cc2c(OCc3ccc(-c4ccccc4)cn3)ccc3c2c(c(CC(C)(C)CC(=O)NS(C)(=O)=O)n3Cc2ccc(Cl)cc2)S1 (stereo not drawn) | 4 |
| CC1Cc2c(OCc3ccc(-c4ccccc4)cn3)ccc3c2c(c(CC(C)(C)CC(=O)O)n3Cc2ccc(Cl)cc2)S1 (stereo not drawn) | 2 |

Tmax lookup needed for CC1Cc2c(OCc3ccc(-c4ccccc4)cn3)ccc3c2c(c(CC(C)(C)Cc2nnn[nH]2)n3Cc2ccc(Cl)cc2)S1 (stereo not drawn) , thanks.
6

* * *

// pIC50 lookup, one value per entry
# Tested system: Polyunsaturated fatty acid 5-lipoxygenase (Rattus norvegicus, UniProt P12527)
# Sequence (P12527 whole entry): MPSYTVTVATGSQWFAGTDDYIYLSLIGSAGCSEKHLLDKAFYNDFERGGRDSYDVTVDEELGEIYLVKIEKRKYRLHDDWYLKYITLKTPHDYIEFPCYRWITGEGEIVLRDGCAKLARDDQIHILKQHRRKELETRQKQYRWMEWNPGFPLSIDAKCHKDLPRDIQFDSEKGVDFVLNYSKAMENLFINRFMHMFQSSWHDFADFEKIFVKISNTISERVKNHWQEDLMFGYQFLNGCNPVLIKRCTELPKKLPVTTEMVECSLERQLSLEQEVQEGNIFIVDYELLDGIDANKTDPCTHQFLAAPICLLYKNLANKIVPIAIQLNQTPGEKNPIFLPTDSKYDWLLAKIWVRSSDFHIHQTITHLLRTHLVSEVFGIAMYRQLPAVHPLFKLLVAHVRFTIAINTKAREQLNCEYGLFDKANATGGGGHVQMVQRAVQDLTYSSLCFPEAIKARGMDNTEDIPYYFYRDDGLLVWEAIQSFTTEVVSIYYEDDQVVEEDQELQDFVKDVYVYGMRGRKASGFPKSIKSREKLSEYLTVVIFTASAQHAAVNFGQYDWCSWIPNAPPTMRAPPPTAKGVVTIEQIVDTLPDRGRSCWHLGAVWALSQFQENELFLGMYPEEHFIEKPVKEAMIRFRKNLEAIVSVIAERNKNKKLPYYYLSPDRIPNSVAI
# Method: In vitro test for inhibition of 5-lipoxygenase in cell-free preparations from rat PMN leukocytes
Field pIC50 (float): negative decimal logarithm of the concentration in molar.

Previously resolved entries follow.
| Compound | pIC50 |
| --- | --- |
| CC1Cc2c(OCc3cc(-c4ccccc4)ccn3)ccc3c2c(c(CC(C)(C)C(=O)O)n3Cc2ccc(Cl)cc2)S1 (stereo unspecified) | 5.70 |
| CC1Cc2c(OCc3ccc(-c4ccccc4)cn3)ccc3c2c(c(C(=O)O)n3Cc2ccc(Cl)cc2)S1 (stereo unspecified) | 5.70 |
| CC1Cc2c(OCc3ccc(-c4ccccc4)cn3)ccc3c2c(c(CC(=O)O)n3Cc2ccc(Cl)cc2)S1 (stereo unspecified) | 6.70 |
| CC1Cc2c(OCc3ccc(-c4ccccc4)cn3)ccc3c2c(c(CC(C)(C)C(=O)O)n3Cc2ccc(-c3ccccc3)cn2)S1 (stereo unspecified) | 7.52 |
| CC1Cc2c(OCc3ccc(-c4ccccc4)cn3)ccc3c2c(c(CC(C)(C)CC(=O)O)n3Cc2ccc(Cl)cc2)S1 (stereo unspecified) | 7.70 |

pIC50 lookup needed for CC1Cc2c(OCc3ccc(C#N)cn3)ccc3c2c(c(CC(C)(C)C(=O)O)n3Cc2ccc(Cl)cc2)S1 (stereo unspecified) , thanks.
6.46

pIC50 lookup needed for COc1ccc(COc2ccc3c4c2CC(C)Sc4c(CC(C)(C)C(=O)O)n3Cc2ccc(Cl)cc2)nc1 (stereo unspecified) , thanks.
6.40

pIC50 lookup needed for CC1Cc2c(OCc3ccc(-c4ccccc4)cn3)ccc3c2c(c(CC(C)(C)C(=O)O)n3Cc2ccc(S(C)(=O)=O)cc2)S1 (stereo unspecified) , thanks.
6.46

pIC50 lookup needed for CC1Cc2c(OCc3ccc(-c4ccccc4)cn3)ccc3c2c(c(CC(C)(C)C(=O)O)n3C(=O)c2ccccc2)S1 (stereo unspecified) , thanks.
6.85

pIC50 lookup needed for "CC1(C)Cc2c(OCc3ccc(-c4ccccc4)cn3)ccc3c2c(c(CC(C)(C)C(=O)O)n3Cc2ccc(Cl)cc2)S1" , thanks.
5.52

pIC50 lookup needed for CC1Cc2c(CCc3ccc(-c4ccccc4)cn3)ccc3c2c(c(CC(C)(C)Cc2nnn[nH]2)n3Cc2ccc(Cl)cc2)S1 (stereo unspecified) , thanks.
7.80
